Target: ABL1 (M351T) (Homo sapiens, UniProt P00519, M351T)
Assay: Inhibition of ABL mutants, kinase assay
Conditions: 10 μM ATP; 5-dose IC50 mode
Experimental: Kinase assays were performed at Reaction Biology Corporation. To a freshly prepared buffer solution was added the target kinase at a concentration of […]. The contents were mixed gently, and then compound (8h) dissolved in DMSO was added to the reaction mixture in the appropriate concentration. The mixture was incubated at room temperature for 30 min. prior to addition of ATP to initiate the reaction. Compound (8h) was tested in a 5-dose IC50 mode with 10-fold serial dilutions starting at 10 μM. […]
QUANTITY_MEASURED: IC50

Briefly, IC50 measured for `CN1CCN(c2ccc(Nc3ncc(/C=C/C#N)c(NC4CCCC4)n3)cc2)CC1` : < 0.1 µM

====

Biological target: Aurora C (Homo sapiens, UniProt Q9UQB9)
Construct: purchased Reaction Biology Corporation
Sequence (Q9UQB9 1-309): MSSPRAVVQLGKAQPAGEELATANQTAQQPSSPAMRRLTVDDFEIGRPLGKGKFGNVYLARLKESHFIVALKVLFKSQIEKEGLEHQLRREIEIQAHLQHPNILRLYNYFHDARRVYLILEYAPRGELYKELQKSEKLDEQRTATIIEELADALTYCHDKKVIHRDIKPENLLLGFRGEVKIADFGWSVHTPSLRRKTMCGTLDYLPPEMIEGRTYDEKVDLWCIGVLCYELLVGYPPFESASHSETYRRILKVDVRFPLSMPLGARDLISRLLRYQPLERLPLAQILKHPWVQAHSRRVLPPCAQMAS
Test: Kinase inhibition assay
Type: biochemical
Details: 10 μM ATP; 5-dose IC50 mode
Procedure: Kinase assays were performed at Reaction Biology Corporation. To a freshly prepared buffer solution was added the target kinase at a concentration of […]. The contents were mixed gently, and then compound 8h dissolved in DMSO was added to the reaction mixture in the appropriate concentration. The mixture was incubated at room temperature for 30 min. prior to addition of ATP to initiate the reaction. Compound 8h was tested in a 5-dose IC50 mode with 10-fold serial dilutions starting at 10 μM. […]
QUANTITY_MEASURED: IC50

What the record says about `CN1CCN(c2ccc(Nc3ncc(/C=C/C#N)c(NC4CCCC4)n3)cc2)CC1` : IC50 is > 1000 nM

====

target: c-Src (Homo sapiens); construct: purchased Reaction Biology Corporation; experiment: Kinase inhibition assay; format: biochemical; conditions: 10 μM ATP; 5-dose IC50 mode
Sequence (P12931 whole entry): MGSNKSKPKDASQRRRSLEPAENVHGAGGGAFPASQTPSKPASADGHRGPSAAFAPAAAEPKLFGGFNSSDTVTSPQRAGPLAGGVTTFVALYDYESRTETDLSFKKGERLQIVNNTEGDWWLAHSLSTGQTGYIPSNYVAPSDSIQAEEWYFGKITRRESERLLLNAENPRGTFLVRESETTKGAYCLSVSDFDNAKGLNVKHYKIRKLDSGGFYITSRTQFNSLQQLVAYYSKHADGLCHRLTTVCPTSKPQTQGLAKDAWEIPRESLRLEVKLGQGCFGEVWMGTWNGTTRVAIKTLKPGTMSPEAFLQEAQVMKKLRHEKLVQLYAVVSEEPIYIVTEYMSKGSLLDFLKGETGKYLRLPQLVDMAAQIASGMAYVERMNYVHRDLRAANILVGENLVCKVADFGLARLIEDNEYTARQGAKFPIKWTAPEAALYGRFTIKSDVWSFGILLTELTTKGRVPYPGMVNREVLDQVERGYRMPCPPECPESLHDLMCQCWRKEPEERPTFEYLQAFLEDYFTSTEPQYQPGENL
QUANTITY_MEASURED: IC50

IC50 measured on CN1CCN(c2ccc(Nc3ncc(/C=C/C#N)c(NC4CCCC4)n3)cc2)CC1 [Compound 8h] = < 100 nM

====

Quick reference: pIC50 of the listed items.
tested on: K562; test: Cytotoxicity on K562 cancer cell line; format: cell-based; conditions: Homo sapiens; K562 chronic myelogenous leukemia; 96 h; 0.01-100 μM
pIC50: −log10 of the molar value.

CCN(c1nc(Nc2ccc(N3CCN(C)CC3)cc2)ncc1/C=C/C#N)C1CCCC1
> 6.00
CNc1nc(Nc2ccc(N3CCN(C)CC3)cn2)ncc1/C=C/S(=O)(=O)c1ccc(F)cc1F [Compound 15l]
4.60 to 6.00
COc1ccc(S(=O)(=O)/C=C/c2cnc(Nc3ccc4[nH]ccc4c3)nc2NC2CCCC2)cc1 [Compound 15k]
4.60 to 6.00

Lab note: measured pIC50 of `CNc1nc(Nc2ccc3[nH]ccc3c2)ncc1/C=C/C#N` was > 6.00

Form: molecule = CNc1nc(Nc2nc3ccccc3[nH]2)ncc1/C=C/S(=O)(=O)c1ccc(F)cc1F [Compound 15h] ; pIC50 = 4.60 to 6.00

So for CNc1nc(Nc2ccc(N3CCN(C)CC3)cc2)ncc1/C=C/S(=O)(=O)c1ccc(F)cc1F [Compound 15d] , the logged pIC50 turned out to be 4.60 to 6.00

Quick note, pIC50 for Cn1ccc(Nc2nc(Nc3ccc4ncccc4c3)ncc2/C=C/S(=O)(=O)c2ccc(F)cc2F)n1 [Compound 15u] landed at 4.60 to 6.00

Memo: `CNc1nc(Nc2ccc(N3CCN(C)CC3)cc2)ncc1/C=C/C#N` , reported pIC50: > 6.00

Sure, the documented pIC50 for `N#C/C=C/c1cnc(NCc2ccccc2)nc1NC1CCCC1` is 4.30 to 4.60

====

biological target: AKT1 (Homo sapiens, UniProt P31749); construct: purchased Reaction Biology Corporation; test: Kinase inhibition assay; assay type: biochemical; conditions: 10 μM ATP; 5-dose IC50 mode
Sequence (P31749 whole entry): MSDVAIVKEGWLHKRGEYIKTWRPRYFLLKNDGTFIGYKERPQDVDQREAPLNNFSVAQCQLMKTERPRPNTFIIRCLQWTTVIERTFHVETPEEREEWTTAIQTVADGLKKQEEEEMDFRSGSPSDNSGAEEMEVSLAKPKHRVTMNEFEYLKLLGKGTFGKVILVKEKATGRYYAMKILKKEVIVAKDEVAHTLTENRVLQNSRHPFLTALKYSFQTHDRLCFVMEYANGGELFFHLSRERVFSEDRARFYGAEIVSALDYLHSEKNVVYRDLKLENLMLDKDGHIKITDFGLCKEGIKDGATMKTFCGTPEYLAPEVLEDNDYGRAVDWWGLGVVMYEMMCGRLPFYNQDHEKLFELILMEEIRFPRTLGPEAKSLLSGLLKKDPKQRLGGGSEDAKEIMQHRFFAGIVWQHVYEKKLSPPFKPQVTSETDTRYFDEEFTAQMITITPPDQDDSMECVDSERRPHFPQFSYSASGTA
QUANTITY_MEASURED: IC50

Per the record, `CN1CCN(c2ccc(Nc3ncc(/C=C/C#N)c(NC4CCCC4)n3)cc2)CC1` has IC50 of > 1000 nM

====

System: K562
Assay: Cytotoxicity on K562 cancer cell line
Type: cell-based
Conditions: Homo sapiens; K562 chronic myelogenous leukemia; 96 h; 0.01-100 μM
Protocol: The effect of the compounds described herein on tumor cells was determined by the assay described by Latham et al., Oncogene 12:827-837 (1996). […] When necessary, the total number of viable cells was determined by trypsinizing the wells and counting the number of viable cells, as determined by trypan blue exclusion, using a hemacytometer.
QUANTITY_MEASURED: IC50

N#C/C=C/c1cnc(Nc2ccc(N3CCOCC3)cc2)nc1NC1CCCC1
1000 to 25000 nM
CNc1nc(Nc2ccc3[nH]ccc3c2)ncc1/C=C/S(=O)(=O)c1ccc(F)cc1F [Compound 15a]
1000 to 25000 nM
CNc1nc(Nc2ccc3[nH]ncc3c2)ncc1/C=C/S(=O)(=O)c1ccc(F)cc1F [Compound 15i]
1000 to 25000 nM

Lab book: IC50 of COc1ccc(S(=O)(=O)/C=C/c2cnc(Nc3ccc(N4CCN(C)CC4)cc3)nc2NC2CCCC2)cc1 [Compound 15j] noted as 1000 to 25000 nM

The molecule identified as CNc1nc(Nc2ccc3[nH]cnc3c2)ncc1/C=C/S(=O)(=O)c1ccc(F)cc1F [Compound 15n] registered its IC50 at 1000 to 25000 nM

Please fill in: IC50 reported for CN1CCN(c2ccc(Nc3ncc(/C=C/S(=O)(=O)c4ccc(F)cc4F)c(NC4CCCC4)n3)cc2)CC1 [Compound 15b] = 1000 to 25000 nM

Item: `CCOC(=O)/C=C/c1cnc(Nc2ccc(N3CCN(C)CC3)cc2)nc1NC1CCCC1` | IC50: < 1000 nM

Briefly, IC50 measured for `COc1ccc(Nc2ncc(/C=C/C#N)c(NC3CCCC3)n2)cc1` : 1000 to 25000 nM

Entry under test: `CCN(C)c1nc(Nc2ccc(N3CCN(C)CC3)cc2)ncc1/C=C/C#N` . Its IC50 was 25000 to 50000 nM

Lab note: measured IC50 of CNc1nc(Nc2ccc(OC)cc2)ncc1/C=C/S(=O)(=O)c1ccc(F)cc1F [Compound 15f] was 25000 to 50000 nM

For record `CN1CCN(c2ccc(Nc3ncc(/C=C/C#N)c(NCC4CC4)n3)cc2)CC1` the listed IC50 is < 1000 nM

Kindly note the recorded IC50 for `CCN1CCN(c2ccc(Nc3ncc(/C=C/C#N)c(NCC4CC4)n3)cc2)CC1` , which is < 1000 nM

Query `COc1cc(N2CCN(C)CC2)ccc1Nc1ncc(/C=C/C#N)c(NC2CCCC2)n1` yields IC50 of 1000 to 25000 nM

// sample `CN1CCN(c2ccc(Nc3ncc(/C=C/C#N)c(NC4CC4)n3)cc2)CC1` , its IC50 was < 1000 nM

Recorded result, CN1CCN(c2ccc(Nc3ncc(/C=C/S(=O)(=O)c4ccc(F)cc4F)c(Nc4ccn(C)n4)n3)cc2)CC1 [Compound 15r] , IC50: 1000 to 25000 nM

Entry CNc1nc(Nc2ccc(N3CCOCC3)cc2)ncc1/C=C/S(=O)(=O)c1ccc(F)cc1F [Compound 15e] , IC50 reported as 50000 to 100000 nM

# IC50 (molecule: `CN1CCN(c2ccc(Nc3ncc(/C=C/C#N)c(NC4CCCC4)n3)nc2)CC1` ) is < 1000 nM

Value of IC50 reported for the molecule `CN1CCN(c2ccc(Nc3ncc(/C=C/C#N)c(N4CCCC4)n3)cc2)CC1` is 1000 to 25000 nM

Reported IC50 ( COc1ccc(Nc2ncc(/C=C/S(=O)(=O)c3ccc(OC)cc3)c(NC3CCCC3)n2)cc1 [Compound 15m] ) = 1000 to 25000 nM

The molecule identified as `CCN1CCN(c2ccc(Nc3ncc(/C=C/C#N)c(NC4CCCC4)n3)cc2)CC1` registered its IC50 at < 1000 nM

====

Measured pIC50 by item
tested on: K562; experiment: Cytotoxicity on K562 cancer cell line; assay type: cell-based; settings: Homo sapiens; K562 chronic myelogenous leukemia; 96 h; 0.01-100 μM
pIC50: −log10 of the molar value.

CNc1nc(Nc2ccc3cc[nH]c3c2)ncc1/C=C/S(=O)(=O)c1ccc(F)cc1F [Compound 15c]
4.60 to 6.00
Cn1ccc(Nc2nc(Nc3ccc(N4CCOCC4)cc3)ncc2/C=C/S(=O)(=O)c2ccc(F)cc2F)n1 [Compound 15t]
4.60 to 6.00
CCCNc1nc(Nc2ccc(N3CCN(C)CC3)cc2)ncc1/C=C/C#N [Compound 8d]
> 6.00

Recorded result, CCNc1nc(Nc2ccc(N3CCN(C)CC3)cc2)ncc1/C=C/C#N [Compound 8c] , pIC50: > 6.00

Field pIC50 (entry N#C/C=C/c1cnc(N2CCOCC2)nc1NC1CCCC1 [Compound 8z] ) reads 4.60 to 6.00

Sample CNc1nc(Nc2cc(OC)c(OC)c(OC)c2)ncc1/C=C/S(=O)(=O)c1ccc(F)cc1F [Compound 15g] ; pIC50 observed: 4.00 to 4.30

// pIC50 value for N#C/C=C/c1cnc(Nc2ccc(N3CCOCC3)cc2)nc1NCC1CC1 [Compound 8r] : > 6.00

# compound CN1CCN(c2ccc(Nc3ncc(/C=C/C#N)c(N)n3)cc2)CC1 [Compound 8a] ; its pIC50 = 4.60 to 6.00

Hey, just so you know, these numbers are from patent US9815847B2.
